B1: tRNA (parent)
chain: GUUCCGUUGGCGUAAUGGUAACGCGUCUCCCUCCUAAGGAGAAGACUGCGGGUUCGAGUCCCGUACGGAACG

- Variants of: B1
- ASSAY COMMENT: yeast fitness relative to wild type (ratio to wild type); higher = fitter; tRNA-Arg(CCU), competitive growth, 37 C, YPD
Fewer inactive variants are shown than the library holds.
ENDPOINT: yeast fitness

C4A A20U C34G C55G C60A; ≤ 0.5
C27U C33U G38C C62U; ≤ 0.5
C29U C33G A69U; ≤ 0.5
C4G C31U C55A; ≤ 0.5
U16A C27U G38A; ≤ 0.5

Next, consider the following variant.
State its yeast fitness: U7C C31G C34U C55U G58A C61U
0.666
